Field: EC50. Provide a value for each of the molecules that follow.
TEST_DETAILS: Lactate dehydrogenase (LDH) release assay
Assay type: cell-based
ASSAY_CONDITIONS: LDH: Cytotoxicity assay: EC50
Positions of bridges follow the written chain, without caps; N, C: chain ends. Non-standard residues stand in square brackets, D forms with d. Residues, ends and D or L forms follow the SMILES beside them. Lys(N3) = [N-]=[N+]=NCCCC[C@H](N)C(=O)O; R8 = C=CCCCCCC[C@@](C)(N)C(=O)O; Cba = N[C@@H](CC1CCC1)C(=O)O; S5 = C=CCCC[C@](C)(N)C(=O)O; βAla = NCCC(=O)O

Prompt: What does the record list as EC50 for CC(=O)N[C@@H](CCCCN=[N+]=[N-])C(=O)NCCC(=O)N[C@@H](CC(C)C)C(=O)N[C@H](C(=O)N[C@@H](Cc1ccccc1)C(=O)N[C@]1(C)CCCCCCC=CCCC[C@@](C)(C(=O)N[C@@H](CO)C(=O)N[C@@H](CCC(=O)O)C(=O)N[C@@H](C)C(N)=O)NC(=O)[C@H](CC2CCC2)NC(=O)[C@H](CCC(N)=O)NC(=O)[C@H](C)NC(=O)[C@H](Cc2c[nH]c3ccccc23)NC(=O)[C@H](Cc2ccc(O)cc2)NC(=O)[C@H](CCC(=O)O)NC1=O)[C@@H](C)O ?
Response: > 50.7 µM

Prompt: What does the record list as EC50 for CC(=O)N[C@@H](CCCNC(=N)N)C(=O)N[C@@H](CCCNC(=N)N)C(=O)NCCCCCC(=O)N[C@@H](CC(C)C)C(=O)N[C@H](C(=O)N[C@@H](Cc1ccccc1)C(=O)N[C@]1(C)CCCCCCC=CCCC[C@@](C)(C(=O)N[C@@H](CO)C(=O)N[C@@H](C)C(=O)N[C@@H](C)C(N)=O)NC(=O)[C@H](CC2CCC2)NC(=O)[C@H](CCC(N)=O)NC(=O)[C@H](C)NC(=O)[C@H](Cc2c[nH]c3ccccc23)NC(=O)[C@H](Cc2ccc(O)cc2)NC(=O)[C@H](CCC(=O)O)NC1=O)[C@@H](C)O ?
Response: 31 µM

Prompt: What does the record list as EC50 for CC(=O)N[C@@H](CCCCN=[N+]=[N-])C(=O)NCCC(=O)N[C@@H](CC(C)C)C(=O)N[C@H](C(=O)N[C@@H](Cc1ccccc1)C(=O)N[C@]1(C)CCCCCCC=CCCC[C@@](C)(C(=O)N[C@H](C)C(=O)N[C@@H](C)C(=O)N[C@@H](C)C(N)=O)NC(=O)[C@H](CC2CCC2)NC(=O)[C@H](CCC(N)=O)NC(=O)[C@H](C)NC(=O)[C@H](Cc2c[nH]c3ccccc23)NC(=O)[C@H](Cc2ccc(O)cc2)NC(=O)[C@H](CCC(=O)O)NC1=O)[C@@H](C)O [MP-475] (Ac-[Lys(N3)][βAla]LTF[R8]EYWAQ[Cba][S5][dA]AA-NH2; staple 6-13) ?
Response: > 50 µM

Prompt: What does the record list as EC50 for CC(C)C[C@@H]1NC(=O)[C@H](C)NC(=O)[C@H](Cc2c[nH]c3ccccc23)NC(=O)[C@H](Cc2ccc(O)cc2)NC(=O)[C@H](CCC(=O)O)NC(=O)[C@](C)(NC(=O)[C@H](Cc2ccccc2)NC(=O)[C@H](CO)NC(=O)[C@@H](NC(=O)CCNC(=O)[C@@H](N)CCCCN=[N+]=[N-])[C@@H](C)O)CCCCCCC=CCCC[C@@](C)(C(N)=O)NC(=O)[C@H](CC(C)C)NC1=O ?
Response: > 50.6 µM

Prompt: What does the record list as EC50 for CC(=O)N[C@@H](CC(C)C)C(=O)N[C@H](C(=O)N[C@@H](Cc1ccccc1)C(=O)N[C@]1(C)CCCCCCC=CCCC[C@@](C)(C(=O)N[C@@H](CO)C(=O)N[C@@H](C)C(=O)N[C@@H](C)C(N)=O)NC(=O)[C@H](CC2CCC2)NC(=O)[C@H](CC(C)C)NC(=O)[C@H](CCC(N)=O)NC(=O)[C@H](Cc2c[nH]c3ccccc23)NC(=O)[C@H](C)NC(=O)[C@H](CCC(=O)O)NC1=O)[C@@H](C)O [MP-363] (Ac-LTF[R8]EAWQL[Cba][S5]SAA-NH2; staple 4-11) ?
Response: > 50.6 µM
